target: EGFR (Homo sapiens)
Sequence (P00533 712-979 limits assumed): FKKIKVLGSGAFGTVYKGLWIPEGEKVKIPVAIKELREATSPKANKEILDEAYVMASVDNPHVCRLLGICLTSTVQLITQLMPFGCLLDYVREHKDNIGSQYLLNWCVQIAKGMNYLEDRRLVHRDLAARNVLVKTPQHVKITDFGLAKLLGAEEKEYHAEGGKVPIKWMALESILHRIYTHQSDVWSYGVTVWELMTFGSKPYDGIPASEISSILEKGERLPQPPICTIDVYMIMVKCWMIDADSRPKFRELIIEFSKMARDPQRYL
Observable: IC50 (nM)
Give bare numbers, in nM.

[ask] Name the recorded IC50 of the molecule listed here: C=CC(=O)Nc1ccc2ncnc(Nc3ccc(OCc4cccc(F)c4)c(Cl)c3)c2c1
[reply] 0.5

----------
target: p70S6K (Homo sapiens)
Sequence (P23443 whole entry): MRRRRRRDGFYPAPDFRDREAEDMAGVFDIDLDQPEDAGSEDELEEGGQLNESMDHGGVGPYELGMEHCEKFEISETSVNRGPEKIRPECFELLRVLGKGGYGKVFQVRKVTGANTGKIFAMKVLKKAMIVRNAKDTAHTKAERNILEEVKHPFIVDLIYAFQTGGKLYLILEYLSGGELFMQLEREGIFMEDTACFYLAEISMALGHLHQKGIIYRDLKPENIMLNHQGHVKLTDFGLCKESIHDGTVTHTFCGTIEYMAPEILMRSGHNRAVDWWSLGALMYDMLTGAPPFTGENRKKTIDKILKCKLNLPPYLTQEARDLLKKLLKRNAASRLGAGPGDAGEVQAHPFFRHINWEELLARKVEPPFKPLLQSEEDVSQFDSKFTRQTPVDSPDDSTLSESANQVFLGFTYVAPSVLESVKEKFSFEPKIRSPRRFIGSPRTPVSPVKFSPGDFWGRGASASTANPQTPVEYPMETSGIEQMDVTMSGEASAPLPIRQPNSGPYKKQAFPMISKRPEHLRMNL
Observable: IC50

[ask] Name the recorded IC50 of the compound listed here: C=CC(=O)Nc1ccc2ncnc(Nc3ccc(OCc4cccc(F)c4)c(Cl)c3)c2c1
[reply] > 10 µM

----------
experiment: Pharmacokinetics after single oral dose; settings: rat, in vivo; rats, single oral dose 90 mg/kg; unpublished data
Observable: half-life

[ask] Name the recorded half-life of the molecule listed here: C=CC(=O)Nc1ccc2ncnc(Nc3ccc(OCc4cccc(F)c4)c(Cl)c3)c2c1 [AST1306]
[reply] < 3.6 h
